src = patent US12624067B2

Target: human integrin αvβ5 (Homo sapiens, UniProt P06756+P18084)
Sequence (P06756 31-889 limits assumed): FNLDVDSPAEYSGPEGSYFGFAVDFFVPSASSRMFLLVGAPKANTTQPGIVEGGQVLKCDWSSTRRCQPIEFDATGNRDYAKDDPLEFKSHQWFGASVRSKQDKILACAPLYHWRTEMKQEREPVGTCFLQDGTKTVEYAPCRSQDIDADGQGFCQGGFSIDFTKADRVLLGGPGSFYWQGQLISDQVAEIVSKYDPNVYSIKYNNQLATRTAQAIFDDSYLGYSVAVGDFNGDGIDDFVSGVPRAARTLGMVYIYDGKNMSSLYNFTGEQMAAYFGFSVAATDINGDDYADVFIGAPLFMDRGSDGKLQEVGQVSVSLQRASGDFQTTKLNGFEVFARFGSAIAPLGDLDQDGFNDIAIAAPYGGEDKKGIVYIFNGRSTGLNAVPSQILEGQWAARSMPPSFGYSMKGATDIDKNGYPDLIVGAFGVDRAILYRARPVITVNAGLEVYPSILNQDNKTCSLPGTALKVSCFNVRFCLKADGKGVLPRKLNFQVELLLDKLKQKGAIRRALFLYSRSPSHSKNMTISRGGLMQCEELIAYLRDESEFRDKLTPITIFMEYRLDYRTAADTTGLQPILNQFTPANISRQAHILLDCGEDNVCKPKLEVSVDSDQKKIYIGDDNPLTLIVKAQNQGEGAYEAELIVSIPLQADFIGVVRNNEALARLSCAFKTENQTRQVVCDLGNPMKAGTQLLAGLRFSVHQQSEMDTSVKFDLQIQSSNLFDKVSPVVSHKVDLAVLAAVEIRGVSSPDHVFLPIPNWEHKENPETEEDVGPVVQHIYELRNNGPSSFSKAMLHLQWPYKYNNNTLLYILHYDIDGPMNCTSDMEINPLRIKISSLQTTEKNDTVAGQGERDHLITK
Sequence (P06756 891-1048 partner limits assumed): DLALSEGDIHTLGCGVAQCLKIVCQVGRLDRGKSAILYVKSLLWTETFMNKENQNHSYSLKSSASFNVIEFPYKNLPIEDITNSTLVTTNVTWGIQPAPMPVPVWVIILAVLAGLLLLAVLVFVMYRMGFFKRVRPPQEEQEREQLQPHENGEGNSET
Sequence (P18084 24-799): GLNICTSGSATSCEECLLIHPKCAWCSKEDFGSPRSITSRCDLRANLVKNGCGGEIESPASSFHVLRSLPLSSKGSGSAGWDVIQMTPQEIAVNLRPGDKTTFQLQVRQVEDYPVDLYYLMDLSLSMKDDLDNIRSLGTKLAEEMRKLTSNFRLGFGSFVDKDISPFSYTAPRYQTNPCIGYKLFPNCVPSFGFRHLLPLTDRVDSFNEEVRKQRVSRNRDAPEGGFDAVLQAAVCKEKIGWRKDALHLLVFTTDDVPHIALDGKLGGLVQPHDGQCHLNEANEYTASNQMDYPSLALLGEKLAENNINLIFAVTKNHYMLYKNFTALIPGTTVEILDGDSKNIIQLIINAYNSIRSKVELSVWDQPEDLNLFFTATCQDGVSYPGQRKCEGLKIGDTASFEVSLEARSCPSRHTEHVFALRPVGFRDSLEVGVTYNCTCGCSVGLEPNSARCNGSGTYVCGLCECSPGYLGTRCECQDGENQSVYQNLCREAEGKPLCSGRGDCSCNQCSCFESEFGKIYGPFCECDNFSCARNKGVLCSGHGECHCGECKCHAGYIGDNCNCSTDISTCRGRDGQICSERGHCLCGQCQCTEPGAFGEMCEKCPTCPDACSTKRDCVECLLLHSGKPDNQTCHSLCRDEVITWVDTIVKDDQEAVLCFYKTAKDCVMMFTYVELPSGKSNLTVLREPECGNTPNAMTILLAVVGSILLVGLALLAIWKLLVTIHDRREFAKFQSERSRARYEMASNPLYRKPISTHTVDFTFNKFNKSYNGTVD
Test: Evaluation of integrin binding property (surface plasmon resonance, Biacore 3000, immobilized cyclic peptide)
Settings: peptide immobilized on CM5 sensor chip; human integrin αvβ5 30-1,000 nM, 25° C., HEPES buffer with 5 mM magnesium chloride; read-out: Integrin binding property (dissociation constant)
pKd: −log10 of the molar value. Numbered stars: 1 amine (or outer) side, 2 acyl side, 3 side chain; on linkers, the order of the positions; unused ones are H or OH. Bridge positions count the residues as written; N and C are the ends. Square brackets hold non-standard residues; d marks the D form. Peptide text beside a SMILES is read from it. hCys = N[C@@H](CCS)C(=O)O; Orn = NCCC[C@H](N)C(=O)O; Dap = NC[C@H](N)C(=O)O; X1 = O=C(C[*:1])[*:2]; X2 = O=C(C[*:2])[*:1]
This listing pairs molecules with measured pKd.

Solved cases (2 shown):
molecule="CC[C@H](C)[C@@H]1NC(=O)CSCC[C@@H](C(=O)N[C@@H](CCCCN)C(=O)N[C@@H](CCCCN)C(=O)N[C@@H](CCCCN)C(=O)O)NC(=O)[C@H](Cc2ccccc2)NC(=O)[C@@H]2CSCC(=O)NCCC[C@H](NC1=O)C(=O)N[C@@H](CCCNC(=N)N)C(=O)NCC(=O)N[C@@H](CC(=O)O)C(=O)N2 [Cyclic peptide 16] ({CH2CO}-I[Orn]RGDCF[hCys]KKK-OH; linker 2-6 via X2; thioether N-8)" measure=pKd observed="> 7.30"
molecule="CC[C@H](C)[C@@H]1NC(=O)CSCC[C@@H](C(=O)N[C@@H](CCCCN)C(=O)N[C@@H](CCCCN)C(=O)N[C@@H](CCCCN)C(=O)O)NC(=O)[C@H](Cc2ccccc2)NC(=O)[C@@H]2CSCC(=O)NC[C@H](NC1=O)C(=O)N[C@@H](CCCNC(=N)N)C(=O)NCC(=O)N[C@@H](CC(=O)O)C(=O)N2 [Cyclic peptide 14] ({CH2CO}-I[Dap]RGDCF[hCys]KKK-OH; linker 2-6 via X2; thioether N-8)" measure=pKd observed="> 7.30"

Req: Return reported pKd for target or system human integrin αvβ5 (Homo sapiens, UniProt P06756+P18084), item N=C(N)NCCC[C@@H]1NC(=O)[C@@H]2CCSCC(=O)NCCC[C@H](NC(=O)[C@H](CC(=O)O)NC(=O)CNC1=O)C(=O)N[C@@H](Cc1ccccc1)C(=O)N[C@H](C(=O)N[C@@H](CCCCN)C(=O)N[C@@H](CCCCN)C(=O)N[C@@H](CCCCN)C(=O)O)CCSCC(=O)N[C@@H](CC(=O)O)C(=O)N2 [Cyclic peptide 42] ({CH2CO}-D[hCys]RGD[Orn]F[hCys]KKK-OH; linker 2-6 via X1; thioether N-8) .
Resp: > 7.30

----------
Molecular target: human integrin αvβ5 (Homo sapiens, UniProt P06756+P18084)
Experiment: Evaluation of integrin binding property (surface plasmon resonance, Biacore 3000, immobilized cyclic peptide)
Conditions: peptide immobilized on CM5 sensor chip; human integrin αvβ5 30-1,000 nM, 25° C., HEPES buffer with 5 mM magnesium chloride; read-out: Integrin binding property (dissociation constant)
Numbered stars: 1 amine (or outer) side, 2 acyl side, 3 side chain; on linkers, the order of the positions; unused ones are H or OH. Bridge positions count the residues as written; N and C are the ends. Square brackets hold non-standard residues; d marks the D form. Peptide text beside a SMILES is read from it. hCys = N[C@@H](CCS)C(=O)O; Orn = NCCC[C@H](N)C(=O)O; Dab = NCC[C@H](N)C(=O)O; Dap = NC[C@H](N)C(=O)O; X2 = O=C(C[*:2])[*:1]
This listing pairs molecules with measured Kd.

Solved cases (2 shown):
molecule="CC[C@H](C)[C@@H]1NC(=O)CSC[C@@H](C(=O)N[C@@H](CCCCN)C(=O)N[C@@H](CCCCN)C(=O)N[C@@H](CCCCN)C(=O)O)NC(=O)[C@H](Cc2ccccc2)NC(=O)[C@@H]2CCSCC(=O)NC[C@H](NC1=O)C(=O)N[C@@H](CCCNC(=N)N)C(=O)NCC(=O)N[C@@H](CC(=O)O)C(=O)N2 [Cyclic peptide 13] ({CH2CO}-I[Dap]RGD[hCys]FCKKK-OH; linker 2-6 via X2; thioether N-8)" test_target="human integrin αvβ5 (Homo sapiens, UniProt P06756+P18084)" observed="50 to 100 nM"
molecule="CC[C@H](C)[C@@H]1NC(=O)CSCC[C@@H](C(=O)N[C@@H](CCCCN)C(=O)N[C@@H](CCCCN)C(=O)N[C@@H](CCCCN)C(=O)O)NC(=O)[C@H](Cc2ccccc2)NC(=O)[C@@H]2CCSCC(=O)NCC[C@H](NC1=O)C(=O)N[C@@H](CCCNC(=N)N)C(=O)NCC(=O)N[C@@H](CC(=O)O)C(=O)N2 [Cyclic peptide 2] ({CH2CO}-I[Dab]RGD[hCys]F[hCys]KKK-OH; linker 2-6 via X2; thioether N-8)" test_target="human integrin αvβ5 (Homo sapiens, UniProt P06756+P18084)" observed="100 to 200 nM"

Consider the additional molecule presented here.
Req: Please list Kd recorded for the molecule N=C(N)NCCC[C@@H]1NC(=O)[C@@H]2CCCNC(=O)CSCC[C@H](NC(=O)[C@H](CC(=O)O)NC(=O)CNC1=O)C(=O)N[C@@H](Cc1ccccc1)C(=O)N[C@H](C(=O)N[C@@H](CCCCN)C(=O)N[C@@H](CCCCN)C(=O)N[C@@H](CCCCN)C(=O)O)CCSCC(=O)N[C@@H](CC(=O)O)C(=O)N2 [Cyclic peptide 39] ({CH2CO}-D[Orn]RGD[hCys]F[hCys]KKK-OH; linker 2-6 via X2; thioether N-8)
Resp: < 50 nM
